- Species on record: Homo sapiens
- test.summary: Selectivity ratio of Ki for human mu opioid receptor to Ki for human delta opioid receptor
The label Met is reserved for Ratio Ki strictly under 90; Not met covers values equal to or above it.

Recorded results for 4 compounds are shown here.
O=C(Cc1ccc(-c2ccccc2)cc1)Oc1ccc2c(c1)[C@@]13CCCC[C@@]1(O)[C@@H](C2)N(CC1CCC1)CC3	Not met
COc1ccc(CC(=O)Oc2ccc3c(c2)[C@@]24CCCC[C@@]2(O)[C@@H](C3)N(CC2CCC2)CC4)cc1	Not met
Cc1ccc(C(C)C(=O)Oc2ccc3c(c2)[C@@]24CCCC[C@@]2(O)[C@@H](C3)N(CC2CCC2)CC4)cc1 (stereo partly drawn)	Met
NC(=O)COc1ccc2c(c1)[C@@]13CCCC[C@@]1(O)[C@@H](C2)N(CC1CCC1)CC3	Met

Request: Problem: For the compound O=[N+]([O-])c1ccc(Oc2ccc3c(c2)[C@@]24CCCC[C@@]2(O)[C@@H](C3)N(CC2CCC2)CC4)cc1 , is Ratio Ki under 90?
Result: Not met

Request: Does the reported Ratio Ki of O[C@@]12CCCC[C@@]13CCN(CC1CCC1)[C@@H]2Cc1ccc(OCc2ccccc2)cc13 stay below 90?
Result: Met

Request: # TODO verify Ratio Ki < 90 strictly for this compound: O=C(Cc1ccccc1)Oc1ccc2c(c1)[C@@]13CCCC[C@@]1(O)[C@@H](C2)N(CC1CCC1)CC3
Result: Not met

Request: Does the reported Ratio Ki of C[C@H]1[C@H]2Cc3ccc(C(=O)N(C)CCc4ccc(-c5ccccc5)cc4)cc3[C@@]1(C)CCN2CC1CC1 stay below 90?
Result: Met

---

- study.system: Mu-type opioid receptor (Homo sapiens, UniProt P35372)
- Sequence (P35372 whole entry): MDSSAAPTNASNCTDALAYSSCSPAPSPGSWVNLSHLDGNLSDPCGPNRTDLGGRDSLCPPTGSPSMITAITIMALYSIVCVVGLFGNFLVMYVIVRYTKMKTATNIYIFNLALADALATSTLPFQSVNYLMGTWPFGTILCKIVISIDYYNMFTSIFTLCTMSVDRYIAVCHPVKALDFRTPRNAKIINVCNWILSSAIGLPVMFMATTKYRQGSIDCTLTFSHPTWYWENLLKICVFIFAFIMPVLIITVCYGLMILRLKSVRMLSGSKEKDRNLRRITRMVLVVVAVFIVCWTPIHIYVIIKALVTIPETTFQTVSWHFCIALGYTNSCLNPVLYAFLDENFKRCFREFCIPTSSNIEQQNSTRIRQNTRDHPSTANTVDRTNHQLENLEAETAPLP
Please respond with satisfied when measured Ki is strictly beneath 10 nM, and with not satisfied in all other cases.

Look over these answered cases.
O=C(Cc1ccc(-c2ccccc2)cc1)Oc1ccc2c(c1)[C@@]13CCCC[C@@]1(O)[C@@H](C2)N(CC1CCC1)CC3	satisfied
COc1ccc(CC(=O)Oc2ccc3c(c2)[C@@]24CCCC[C@@]2(O)[C@@H](C3)N(CC2CCC2)CC4)cc1	satisfied
O[C@@]12CCCC[C@@]13CCN(CC1CCC1)[C@@H]2Cc1ccc(OCc2ccccc2)cc13	not satisfied
C[C@H]1[C@H]2Cc3ccc(C(=O)N(C)CCc4ccc(-c5ccccc5)cc4)cc3[C@@]1(C)CCN2CC1CC1	satisfied
Nc1ccc(Oc2ccc3c(c2)[C@@]24CCCC[C@@]2(O)[C@@H](C3)N(CC2CCC2)CC4)cc1	satisfied

Request: Please let me know if O=C(Cc1ccccc1)Oc1ccc2c(c1)[C@@]13CCCC[C@@]1(O)[C@@H](C2)N(CC1CCC1)CC3 shows Ki below 10 nM.
Result: satisfied

Request: I wonder whether OCCCOc1ccc2c(c1)[C@@]13CCCC[C@@]1(O)[C@@H](C2)N(CC1CCC1)CC3 has Ki below 10 nM. Can you tell?
Result: not satisfied

---

- Species on record: Homo sapiens
- test.summary: Selectivity ratio of Ki for human mu opioid receptor to Ki for human kappa opioid receptor
recorded.endpoint: Ratio Ki
# print the numeric value only

NC(=O)COc1ccc2c(c1)[C@@]13CCCC[C@@]1(O)[C@@H](C2)N(CC1CCC1)CC3	1.2
O[C@@]12CCCC[C@@]13CCN(CC1CCC1)[C@@H]2Cc1ccc(OCc2ccccc2)cc13	1.3
Cc1ccc(C(C)C(=O)Oc2ccc3c(c2)[C@@]24CCCC[C@@]2(O)[C@@H](C3)N(CC2CCC2)CC4)cc1 (some centres undefined)	1

# next compound below
Request: Report Ratio Ki for Nc1ccc(Oc2ccc3c(c2)[C@@]24CCCC[C@@]2(O)[C@@H](C3)N(CC2CCC2)CC4)cc1
Result: 1.3

---

- study.system: Kappa-type opioid receptor (Homo sapiens, UniProt P41145)
- Sequence (P41145 whole entry): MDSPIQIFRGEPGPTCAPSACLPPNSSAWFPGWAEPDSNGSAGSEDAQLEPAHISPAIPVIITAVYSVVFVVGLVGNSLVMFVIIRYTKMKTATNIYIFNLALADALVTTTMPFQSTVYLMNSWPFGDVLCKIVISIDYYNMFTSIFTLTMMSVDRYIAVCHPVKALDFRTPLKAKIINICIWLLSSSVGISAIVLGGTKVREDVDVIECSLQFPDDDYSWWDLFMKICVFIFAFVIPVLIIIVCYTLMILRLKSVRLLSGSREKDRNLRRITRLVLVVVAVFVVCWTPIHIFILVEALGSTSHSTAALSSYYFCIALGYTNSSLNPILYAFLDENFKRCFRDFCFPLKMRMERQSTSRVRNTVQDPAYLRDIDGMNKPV
recorded.endpoint: pKi
To interpret pKi, take it as minus log10 of a concentration measured in moles per litre.

Worked examples follow.
OCCCOc1ccc2c(c1)[C@@]13CCCC[C@@]1(O)[C@@H](C2)N(CC1CCC1)CC3	8.07
O=C(Cc1ccc(-c2ccccc2)cc1)Oc1ccc2c(c1)[C@@]13CCCC[C@@]1(O)[C@@H](C2)N(CC1CCC1)CC3	9.06
C[C@H]1[C@H]2Cc3ccc(C(=O)N(C)CCc4ccc(-c5ccccc5)cc4)cc3[C@@]1(C)CCN2CC1CC1	7.96
NC(=O)COc1ccc2c(c1)[C@@]13CCCC[C@@]1(O)[C@@H](C2)N(CC1CCC1)CC3	7.17
O=[N+]([O-])c1ccc(Oc2ccc3c(c2)[C@@]24CCCC[C@@]2(O)[C@@H](C3)N(CC2CCC2)CC4)cc1	7.55
Cc1ccc(C(C)C(=O)Oc2ccc3c(c2)[C@@]24CCCC[C@@]2(O)[C@@H](C3)N(CC2CCC2)CC4)cc1 (stereo partly drawn)	8.89

Request: Indicate the recorded pKi value for this compound: O=C(COc1ccccc1)Oc1ccc2c(c1)[C@@]13CCCC[C@@]1(O)[C@@H](C2)N(CC1CCC1)CC3
Result: 10.32

Request: Dear colleague, please send me the reported pKi for COc1ccc(CC(=O)Oc2ccc3c(c2)[C@@]24CCCC[C@@]2(O)[C@@H](C3)N(CC2CCC2)CC4)cc1 when you can.
Result: 9.68

---

Ratio Ki overview
- Organism: Homo sapiens
- test.summary: Selectivity ratio of Ki for human kappa opioid receptor to Ki for human delta opioid receptor
Lab note: record the figure alone, no unit after it.

Solved entries:
NC(=O)COc1ccc2c(c1)[C@@]13CCCC[C@@]1(O)[C@@H](C2)N(CC1CCC1)CC3	1
O=C(Cc1ccc(-c2ccccc2)cc1)Oc1ccc2c(c1)[C@@]13CCCC[C@@]1(O)[C@@H](C2)N(CC1CCC1)CC3	3.1
C[C@H]1[C@H]2Cc3ccc(C(=O)N(C)CCc4ccc(-c5ccccc5)cc4)cc3[C@@]1(C)CCN2CC1CC1	1
COc1ccc(CC(=O)Oc2ccc3c(c2)[C@@]24CCCC[C@@]2(O)[C@@H](C3)N(CC2CCC2)CC4)cc1	1
O=[N+]([O-])c1ccc(Oc2ccc3c(c2)[C@@]24CCCC[C@@]2(O)[C@@H](C3)N(CC2CCC2)CC4)cc1	1

Request: Given the compound O[C@@]12CCCC[C@@]13CCN(CC1CCC1)[C@@H]2Cc1ccc(OCc2ccccc2)cc13 , write its reported Ratio Ki.
Result: 1

Request: Note Ratio Ki for the compound shown: OCCCOc1ccc2c(c1)[C@@]13CCCC[C@@]1(O)[C@@H](C2)N(CC1CCC1)CC3
Result: 2.1

Request: Could you please provide reported Ratio Ki for Nc1ccc(Oc2ccc3c(c2)[C@@]24CCCC[C@@]2(O)[C@@H](C3)N(CC2CCC2)CC4)cc1 ? Thanks!
Result: 1

---

- Species: Homo sapiens
- test.summary: Selectivity ratio of Ki for human kappa opioid receptor to Ki for human delta opioid receptor
Overview of recorded Ratio Ki for various molecules
Just the number, please, no unit after it.

O=C(Oc1ccc2c(c1)[C@@]13CCCC[C@@]1(O)[C@@H](C2)N(CC1CCC1)CC3)c1ccc(-c2ccccc2)cc1	1
O=C(Cc1ccccc1)Oc1ccc2c(c1)[C@@]13CCCC[C@@]1(O)[C@@H](C2)N(CC1CCC1)CC3	1
O=C(COc1ccccc1)Oc1ccc2c(c1)[C@@]13CCCC[C@@]1(O)[C@@H](C2)N(CC1CCC1)CC3	1.3

Request: Please indicate Ratio Ki recorded for Cc1ccc(C(C)C(=O)Oc2ccc3c(c2)[C@@]24CCCC[C@@]2(O)[C@@H](C3)N(CC2CCC2)CC4)cc1 (stereo not given in full)
Result: 1.9

Request: Kindly indicate its recorded Ratio Ki. Item: O[C@@]12CCCC[C@@]13CCN(CC1CCC1)[C@@H]2Cc1ccc(OCCc2ccccc2)cc13
Result: 1

---

- study.system: Delta-type opioid receptor (Homo sapiens)
- Sequence (P41143 whole entry): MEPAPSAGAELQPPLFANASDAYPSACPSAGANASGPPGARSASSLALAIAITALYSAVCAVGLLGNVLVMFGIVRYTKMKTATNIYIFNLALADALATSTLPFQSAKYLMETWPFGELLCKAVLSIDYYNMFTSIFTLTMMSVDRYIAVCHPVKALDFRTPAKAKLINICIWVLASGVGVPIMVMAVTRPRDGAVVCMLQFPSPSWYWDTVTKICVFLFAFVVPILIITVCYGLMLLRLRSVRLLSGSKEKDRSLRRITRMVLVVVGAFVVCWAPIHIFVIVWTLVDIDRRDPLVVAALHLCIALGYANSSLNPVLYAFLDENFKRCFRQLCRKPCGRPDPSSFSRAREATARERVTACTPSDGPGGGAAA
- test.summary: Displacement of [3H]Naltindole from human delta opioid receptor expressed in CHO cell membrane
recorded.endpoint: Ki (nM)
I only need the number, in nM, no unit after it.

Example entries and their recorded answers appear below.
O=C(Oc1ccc2c(c1)[C@@]13CCCC[C@@]1(O)[C@@H](C2)N(CC1CCC1)CC3)c1ccc(-c2ccccc2)cc1	690
O[C@@]12CCCC[C@@]13CCN(CC1CCC1)[C@@H]2Cc1ccc(OCc2ccccc2)cc13	670
O[C@@]12CCCC[C@@]13CCN(CC1CCC1)[C@@H]2Cc1ccc(OCCc2ccccc2)cc13	500
NC(=O)COc1ccc2c(c1)[C@@]13CCCC[C@@]1(O)[C@@H](C2)N(CC1CCC1)CC3	760
O=C(COc1ccccc1)Oc1ccc2c(c1)[C@@]13CCCC[C@@]1(O)[C@@H](C2)N(CC1CCC1)CC3	22

Request: Report measured Ki; entry is OCCCOc1ccc2c(c1)[C@@]13CCCC[C@@]1(O)[C@@H](C2)N(CC1CCC1)CC3
Result: 490
